- PROTOCOL NOTES: In vitro cell cytotoxicity (CellTiter-Glo) in Vero cells
- Assay type: cell-based
- COND: African green monkey, 3-5 days, max concentration 500 or 1000 μM, * = average of two values
MEASURED METRIC: CC50 (µM)

>>> test_result("O=[N+]([O-])c1cc(CN2CCCO2)ccc1NCCCCCCN1C[C@H](O)[C@@H](O)[C@H](O)[C@H]1CO")
2130
>>> test_result("[N-]=[N+]=Nc1ccc(NCCCCCCN2C[C@H](O)[C@@H](O)[C@H](O)[C@H]2CO)c([N+](=O)[O-])c1")
77.3
>>> test_result("[N-]=[N+]=Nc1ccc(NCCCCN2C[C@H](O)[C@@H](O)[C@H](O)[C@H]2CO)c([N+](=O)[O-])c1")
350
>>> test_result("O=[N+]([O-])c1cc(-c2ccncn2)ccc1NCCCCCCN1C[C@H](O)[C@@H](O)[C@H](O)[C@H]1CO")
816
>>> test_result("O=[N+]([O-])c1cc(-c2cccnc2)ccc1NCCCCCCN1C[C@H](O)[C@@H](O)[C@H](O)[C@H]1CO")
101
>>> test_result("O=[N+]([O-])c1cc(-n2nccn2)ccc1NCCCCCCN1C[C@H](O)[C@@H](O)[C@H](O)[C@H]1CO")
245

---

Form field: CC50 (one value per entry).
- PROTOCOL NOTES: In vitro cell cytotoxicity (CellTiter-Glo) in Vero cells
- Type: cell-based
- COND: African green monkey, 3-5 days, max concentration 500 or 1000 μM, * = average of two values
MEASURED METRIC: CC50

>>> test_result("COC(C)(C)CCCCCCCCN1C[C@H](O)[C@@H](O)[C@H](O)[C@H]1CO [Compound 2]")
"> 0.5 mM"
>>> test_result("CN1CCN(Cc2ccc(NCCCCCCN3C[C@H](O)[C@@H](O)[C@H](O)[C@H]3CO)c([N+](=O)[O-])c2)CC1 [Compound 15]")
"> 1 mM"
>>> test_result("COCCCCCCCCCN1C[C@H](O)[C@@H](O)[C@H](O)[C@H]1CO [UV-4]")
"> 1 mM"
>>> test_result("O=[N+]([O-])c1cc(-c2ncccn2)ccc1NCCCCCCN1C[C@H](O)[C@@H](O)[C@H](O)[C@H]1CO [Compound 7]")
"> 1 mM"
>>> test_result("N/C(=N/O)c1ccc(NCCCCCCN2C[C@H](O)[C@@H](O)[C@H](O)[C@H]2CO)c([N+](=O)[O-])c1 [Compound 4]")
"> 1 mM"
>>> test_result("OC[C@@H]1[C@@H](O)[C@H](O)[C@@H](O)CN1CCCCCCCCC1CCCO1 (some centres unmarked) [Compound 1]")
"> 0.5 mM"
>>> test_result("O=[N+]([O-])c1ccc(-n2cnnn2)cc1NCCCCCCN1C[C@H](O)[C@@H](O)[C@H](O)[C@H]1CO [Compound 9]")
"> 1 mM"
>>> test_result("O=[N+]([O-])c1cc(NCCCCCCN2C[C@H](O)[C@@H](O)[C@H](O)[C@H]2CO)ccc1-n1cnnn1 [Compound 14]")
"> 1 mM"
